- ASSAY_TARGET: GluA1o-γ8 (GRIA1o-CACNG8 fusion construct) (Homo sapiens (Human), UniProt P42261+Q8WXS5)
- Sequence (P42261 other isoform, or with tags, fused parts or gaps): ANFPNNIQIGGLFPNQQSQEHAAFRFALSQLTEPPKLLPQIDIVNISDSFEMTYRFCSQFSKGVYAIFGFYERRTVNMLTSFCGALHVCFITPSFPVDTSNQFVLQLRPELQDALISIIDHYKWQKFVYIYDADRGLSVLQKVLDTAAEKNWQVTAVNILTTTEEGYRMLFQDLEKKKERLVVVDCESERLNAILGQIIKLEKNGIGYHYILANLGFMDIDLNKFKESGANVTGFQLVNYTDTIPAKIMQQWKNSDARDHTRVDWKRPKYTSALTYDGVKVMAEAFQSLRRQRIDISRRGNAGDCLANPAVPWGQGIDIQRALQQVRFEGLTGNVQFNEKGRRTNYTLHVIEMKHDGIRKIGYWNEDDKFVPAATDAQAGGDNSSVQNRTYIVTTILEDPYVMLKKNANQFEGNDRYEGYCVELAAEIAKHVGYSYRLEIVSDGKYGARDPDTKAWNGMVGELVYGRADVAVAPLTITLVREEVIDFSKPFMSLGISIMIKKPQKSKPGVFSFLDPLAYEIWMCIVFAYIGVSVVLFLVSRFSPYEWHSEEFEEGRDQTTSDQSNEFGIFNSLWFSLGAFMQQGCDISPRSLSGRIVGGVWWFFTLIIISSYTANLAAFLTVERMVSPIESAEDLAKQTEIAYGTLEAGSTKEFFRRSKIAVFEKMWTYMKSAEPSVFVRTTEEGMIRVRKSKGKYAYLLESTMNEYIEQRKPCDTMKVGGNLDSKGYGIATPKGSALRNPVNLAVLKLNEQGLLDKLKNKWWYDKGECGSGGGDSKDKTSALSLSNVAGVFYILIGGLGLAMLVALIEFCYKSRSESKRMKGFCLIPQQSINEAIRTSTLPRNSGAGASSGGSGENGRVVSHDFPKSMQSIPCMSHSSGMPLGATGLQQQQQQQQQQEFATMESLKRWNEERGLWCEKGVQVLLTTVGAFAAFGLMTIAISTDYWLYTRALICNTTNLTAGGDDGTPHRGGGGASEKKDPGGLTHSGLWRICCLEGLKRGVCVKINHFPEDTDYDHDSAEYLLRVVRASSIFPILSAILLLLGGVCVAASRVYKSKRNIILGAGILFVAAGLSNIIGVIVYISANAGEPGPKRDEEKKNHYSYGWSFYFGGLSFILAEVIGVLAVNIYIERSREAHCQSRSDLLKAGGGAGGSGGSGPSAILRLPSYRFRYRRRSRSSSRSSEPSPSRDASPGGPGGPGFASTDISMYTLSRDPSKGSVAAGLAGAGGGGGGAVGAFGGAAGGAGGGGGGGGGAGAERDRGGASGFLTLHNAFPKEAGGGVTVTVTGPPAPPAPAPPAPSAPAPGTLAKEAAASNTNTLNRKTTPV
- METHOD: Calcium flux assay (FLIPR), inhibition of TARP γ8 dependent AMPA receptor activity
- RUN_PARAMETERS: GluA1o-γ8 (GRIA1o-CACNG8 fusion) in HEK293 cells, calcium flux after 15 μM glutamate
pIC50: −log10 of the molar value.
PROPERTY_MEASURED: pIC50

Cc1nc2ccc(C(F)(F)F)nc2n1-c1cc(Cl)c2c(c1)CC(=O)N2
9.00
FC(F)(F)c1cnc2c(c1)nc(C(F)(F)F)n2-c1cc(Cl)c2[nH]ncc2c1
9.20
Cc1cc(N2CCOCC2)c2nc(C3CCC3)n(-c3ccc4[nH]c(=O)sc4c3)c2n1
9.00

* * *

- ASSAY_TARGET: GluA1o-γ8 (GRIA1o-CACNG8 fusion construct) (Homo sapiens (Human), UniProt P42261+Q8WXS5)
- METHOD: Calcium flux assay (FLIPR), inhibition of TARP γ8 dependent AMPA receptor activity
- RUN_PARAMETERS: GluA1o-γ8 (GRIA1o-CACNG8 fusion) in HEK293 cells, calcium flux after 15 μM glutamate
pIC50: −log10 of the molar value.
PROPERTY_MEASURED: pIC50

Take a look at these entries with their results.
c1ccc(-c2nc3cccnc3n2-c2ccc3[nH]ccc3c2)cc1
6.30
Cc1ccnc2c1nc(C(F)(F)F)n2-c1ccc2[nH]ncc2c1
7.00
COc1ccc2nc(C(F)(F)F)n(-c3cc(Cl)c4[nH]ncc4c3)c2n1
10.30
Cc1ccc2nc(C(C)C)n(-c3ccc4c(c3)CC(=O)N4)c2n1
7.20
CCOc1nc2ccc(C(F)(F)F)nc2n1-c1cc(C)c2[nH]ncc2c1
9.40

P. CC(C)c1nc2ccc(C(F)F)nc2n1-c1ccc2c(c1)CC(=O)N2
Q. Cc1cc(-n2c(CCCF)cc3ccc(C(F)(F)F)nc32)cc2cn[nH]c12
R. Cc1cc2ccc(C(F)(F)F)nc2n1-c1cc(F)c2c(c1)CC(=O)N2
Query: Sort by pIC50, descending. I'd appreciate it if you listed the labels in the requested order.
Response: Q, P, R
(Q: 10.40, P: 8.90, R: 5.50)

A. FC(F)(F)c1ccc2nc(C3CCC3)n(-c3ccc4[nH]ncc4c3)c2n1
B. O=C1Cc2cc(-n3c(CC4CCCC4)nc4ccc(C(F)(F)F)nc43)ccc2N1
Query: Sorting ascending by pIC50, which comes first: A or B ? // respond with label for picked entry
Response: B

* * *

- ASSAY_TARGET: GluA1o-γ8 (GRIA1o-CACNG8 fusion construct) (Homo sapiens (Human), UniProt P42261+Q8WXS5)
- METHOD: Calcium flux assay (FLIPR), inhibition of TARP γ8 dependent AMPA receptor activity
- RUN_PARAMETERS: GluA1o-γ8 (GRIA1o-CACNG8 fusion) in HEK293 cells, calcium flux after 15 μM glutamate
pIC50: −log10 of the molar value.
PROPERTY_MEASURED: pIC50

P. Fc1ccc(-c2cc3ccc(Cl)nc3n2-c2ccc3[nH]ccc3c2)cc1
Q. CCC(CC)c1nc2ccc(C(F)(F)F)nc2n1-c1ccc2c(c1)CC(=O)N2
Query: Endpoint returns the identifier whose pIC50 is numerically larger, either P or Q . // respond with label for picked entry
Response: P
(P: 7.80, Q: 7.20)

a. O=C1Cc2cc(-n3c(C4CC4)cc4ccc(C(F)(F)F)nc43)ccc2N1
b. O=C(NC1CC1)c1nc2ccc(C(F)(F)F)nc2n1-c1ccc2[nH]ncc2c1
c. CCc1cc2cccnc2n1-c1cc(C)c2c(c1)CC(=O)N2
d. Cc1cc(-n2c3nc(C(F)(F)F)ccc3nc2[C@H]2C[C@@H](F)C2)cc2cn[nH]c12
e. Cc1cc2ccc(C(F)(F)F)nc2n1-c1ccc2c(c1)CC(=O)N2
Query: Could you please order the items by pIC50, going from the lowest number to the highest? I'd appreciate it if you listed the labels in the requested order.
Response: b, c, e, d, a

1. Cc1cc(-n2c([C@@H](C)F)nc3ccc(C(F)(F)F)nc32)cc2cn[nH]c12 (single isomer, unassigned)
2. Clc1ccc2nc(-c3ccccc3)n(-c3ccc4[nH]ncc4c3)c2n1
3. Cc1ccc(-c2nc3ccc(C(F)(F)F)nc3n2-c2ccc3[nH]ncc3c2)cc1
4. O=c1[nH]c2ccc(-n3c(C4CCCC4)nc4ccc(C(F)(F)F)nc43)cc2s1
Query: Sort by pIC50, descending. I'd appreciate it if you listed the labels in the requested order.
Response: 1, 4, 2, 3

A. O=C1Cc2cc(-n3c(-c4ccc(F)cc4)cc4cccnc43)ccc2N1
B. Cc1ccnc2c1nc(C(F)(F)F)n2-c1cc(Cl)c2[nH]ncc2c1
Query: Endpoint returns the identifier whose pIC50 is numerically larger, either A or B . // respond with label for picked entry
Response: B

P. CC[C@@H](C)c1nc2ccc(C(F)(F)F)nc2n1-c1cc(Cl)c2[nH]ncc2c1 (single isomer, unassigned)
Q. O=C1Cc2cc(-n3c(C4CC4)nc4ccc(Cl)nc43)ccc2N1
Query: Endpoint returns the identifier whose pIC50 is numerically larger, either P or Q . // respond with label for picked entry
Response: P

P. COC(C)(C)c1nc2ccc(C(F)(F)F)nc2n1-c1cc(C)c2[nH]ncc2c1
Q. CC(C)(C)c1nc2ccc(C(F)(F)F)nc2n1-c1ccc2[nH]ncc2c1
Query: Endpoint returns the identifier whose pIC50 is numerically larger, either P or Q . // respond with label for picked entry
Response: P
(P: 8.60, Q: 7.70)
